measurement notes: Pharmacokinetic assay
Format: in vivo, BALB/c mice
condition context: female, BALB/c, mouse, plasma, iv, 4 mg/kg
property measured: clearance (mL/min/kg)
Value expressed in mL/min/kg; do not type the unit.

q: Find the recorded clearance belonging to Nc1ccn([C@@H]2O[C@H](CO)[C@@H](O)C2(F)F)c(=O)n1 [GEM, Gemcitabine] and report it.
a: 5.67

###

measurement notes: Pharmacokinetic assay
Format: in vivo, BALB/c mice
condition context: female, BALB/c, mouse, plasma, iv, 4 mg/kg
property measured: half-life (min)
Value expressed in min; do not type the unit.

q: Find the recorded half-life belonging to `Nc1ccn([C@@H]2O[C@H](CO)[C@@H](O)C2(F)F)c(=O)n1` and report it.
a: 36.9
